These measurements were taken from patent US10351827B2.

Test system: iPS(Foreskin)-4-derived d8 HPTC-like cells
conditions: human, 16 h, 10 μg/ml
Use 3 as the dividing line for IL8 Expression Levels, with the line itself on the satisfied side and lower values as not satisfied.

{"compound": "C[C@H]1O[C@H](O[C@H]2[C@H](O)[C@@H](O)[C@@H](O[C@H]3[C@H](O)[C@@H](O)C(O)O[C@@H]3CO)O[C@@H]2CO)[C@H](O)[C@@H](O)[C@@H]1N[C@H]1C=C(CO)[C@@H](O)[C@H](O)[C@H]1O (stereo partly shown) [Acarbose]", "assigned label": "not satisfied"}
{"compound": "NCC(=O)O [Glycine]", "assigned label": "satisfied"}
{"compound": "O=c1[nH]cc(F)c(=O)[nH]1 [5-Fluorouracil]", "assigned label": "satisfied"}
{"compound": "CO[C@H]1/C=C/O[C@@]2(C)Oc3c(C)c(O)c4c(O)c(c(/C=N/N5CCN(C)CC5)c(O)c4c3C2=O)NC(=O)/C(C)=C\\C=C\\[C@H](C)[C@H](O)[C@@H](C)[C@@H](O)[C@@H](C)[C@H](OC(C)=O)[C@@H]1C [Rifampicin]", "assigned label": "satisfied"}
{"compound": "CCOc1ccc(NC(C)=O)cc1 [Phenacetin]", "assigned label": "satisfied"}
{"compound": "COc1ccc(C[C@H](N)C(=O)N[C@H]2[C@@H](O)[C@H](n3cnc4c(N(C)C)ncnc43)O[C@@H]2CO)cc1 [Puromycin]", "assigned label": "satisfied"}
{"compound": "NC(=O)c1ncn([C@@H]2O[C@H](CO)[C@@H](O)[C@H]2O)n1 [Ribavirin]", "assigned label": "not satisfied"}

* * *

Listed here are molecules together with their documented IL8 Expression Levels.
Tested on: iPS(Foreskin)-4-derived d8 HPTC-like cells
conditions: human, 16 h, 1000 μg/ml

{"molecule": "CC(C)[C@H](N)C(=O)OCCOCn1cnc2c(=O)[nH]c(N)nc21", "IL8 Expression Levels": 32.5}
{"molecule": "CC(=O)Nc1ccc(O)cc1", "IL8 Expression Levels": 0.1}
{"molecule": "CCC[C@@H]1C[C@@H](C(=O)N[C@@H]([C@H]2O[C@H](SC)[C@H](O)[C@@H](O)[C@H]2O)[C@@H](C)O)N(C)C1", "IL8 Expression Levels": 6.1}
{"molecule": "NC(=O)c1ncn([C@@H]2O[C@H](CO)[C@@H](O)[C@H]2O)n1", "IL8 Expression Levels": 0.2}
{"molecule": "CO[C@H]1/C=C/O[C@@]2(C)Oc3c(C)c(O)c4c(O)c(c(/C=N/N5CCN(C)CC5)c(O)c4c3C2=O)NC(=O)/C(C)=C\\C=C\\[C@H](C)[C@H](O)[C@@H](C)[C@@H](O)[C@@H](C)[C@H](OC(C)=O)[C@@H]1C", "IL8 Expression Levels": 18.2}
{"molecule": "C[C@H]1O[C@H](O[C@H]2[C@H](O)[C@@H](O)[C@@H](O[C@H]3[C@H](O)[C@@H](O)C(O)O[C@@H]3CO)O[C@@H]2CO)[C@H](O)[C@@H](O)[C@@H]1N[C@H]1C=C(CO)[C@@H](O)[C@H](O)[C@H]1O (some centres unmarked)", "IL8 Expression Levels": 1.6}
{"molecule": "O=c1[nH]cc(F)c(=O)[nH]1", "IL8 Expression Levels": 5.7}
{"molecule": "CCOc1ccc(NC(C)=O)cc1", "IL8 Expression Levels": 6.4}
{"molecule": "NC[C@H]1O[C@H](O[C@H]2[C@H](O)[C@@H](O[C@H]3O[C@H](CO)[C@@H](O)[C@H](N)[C@H]3O)[C@H](N)C[C@@H]2N)[C@H](N)C[C@@H]1O", "IL8 Expression Levels": 25.5}
{"molecule": "NCC(=O)O", "IL8 Expression Levels": 4.9}
